Provide the reported Kd of each item.
Target: CD16a (V Variant) (Homo sapiens, UniProt P08637, F176V)
Sequence (P08637 17-208 F176V): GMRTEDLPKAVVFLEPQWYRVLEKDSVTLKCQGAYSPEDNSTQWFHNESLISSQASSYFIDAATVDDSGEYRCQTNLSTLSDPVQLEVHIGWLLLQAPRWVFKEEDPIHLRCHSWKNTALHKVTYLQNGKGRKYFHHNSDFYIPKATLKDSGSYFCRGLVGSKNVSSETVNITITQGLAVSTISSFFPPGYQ
Assay: FcγRIII (CD16a) SPR (Method A and/or Method B), V variant
Type: binding
Conditions: SPR Method A and/or B, Table 6B; read-out: Kd (nM) (V Variant)
Numbered stars: 1 amine (or outer) side, 2 acyl side, 3 side chain; on linkers, the order of the positions; unused ones are H or OH. Bridge positions count the residues as written; N and C are the ends. Peptide text beside a SMILES is read from it. TATA = O=C(CC[*:1])N1CN(C(=O)CC[*:2])CN(C(=O)CC[*:3])C1
Answers are plain numbers, in nM.

Could I get Kd for every one of these entries?
1. CC(C)C[C@@H]1NC(=O)[C@@H]2CCCN2C(=O)[C@H](Cc2c[nH]cn2)NC(=O)[C@@H]2CSCCC(=O)N3CN(CN(C3)C(=O)CCSC[C@H](NC(=O)[C@H](C)N)C(=O)N3CCC[C@H]3C(=O)N3CCC[C@H]3C(=O)N[C@@H](CCC(=O)O)C(=O)N[C@@H](C(C)C)C(=O)N[C@@H](Cc3ccccc3)C(=O)N2)C(=O)CCSC[C@@H](C(=O)N[C@@H](C)C(N)=O)NC(=O)[C@H](CC(=O)O)NC1=O [BCY11809, A-(SEQ ID NO: 170)-A] (H-ACPPEVFCHPLDCA-NH2; linker 2-8-13 via TATA; N-terminus and C-terminus assumed)
2. CC(C)C[C@@H]1NC(=O)[C@@H]2CCCN2C(=O)[C@H](Cc2c[nH]cn2)NC(=O)[C@@H]2CSCCC(=O)N3CN(CN(C3)C(=O)CCSC[C@H](NC(=O)[C@H](C)N)C(=O)N3CCC[C@H]3C(=O)N3CCC[C@H]3C(=O)N[C@@H](CCC(=O)O)C(=O)N[C@@H](C(C)C)C(=O)N[C@@H](Cc3c[nH]c4ccccc34)C(=O)N2)C(=O)CCSC[C@@H](C(=O)N[C@@H](C)C(N)=O)NC(=O)[C@H](CC(=O)O)NC1=O [BCY11811, A-(SEQ ID NO: 172)-A] (H-ACPPEVWCHPLDCA-NH2; linker 2-8-13 via TATA)

### Response
[4330, 1230]
